target: human KDR enzyme (Homo sapiens, UniProt P35968); construct: The cytoplasmic domain of the human KDR enzyme was cloned in the form of a GST fusion; GST; assay: KDR substrate phosphorylation assay (scintillation, 96-well plate)
Sequence (P35968 786-1356 limits assumed): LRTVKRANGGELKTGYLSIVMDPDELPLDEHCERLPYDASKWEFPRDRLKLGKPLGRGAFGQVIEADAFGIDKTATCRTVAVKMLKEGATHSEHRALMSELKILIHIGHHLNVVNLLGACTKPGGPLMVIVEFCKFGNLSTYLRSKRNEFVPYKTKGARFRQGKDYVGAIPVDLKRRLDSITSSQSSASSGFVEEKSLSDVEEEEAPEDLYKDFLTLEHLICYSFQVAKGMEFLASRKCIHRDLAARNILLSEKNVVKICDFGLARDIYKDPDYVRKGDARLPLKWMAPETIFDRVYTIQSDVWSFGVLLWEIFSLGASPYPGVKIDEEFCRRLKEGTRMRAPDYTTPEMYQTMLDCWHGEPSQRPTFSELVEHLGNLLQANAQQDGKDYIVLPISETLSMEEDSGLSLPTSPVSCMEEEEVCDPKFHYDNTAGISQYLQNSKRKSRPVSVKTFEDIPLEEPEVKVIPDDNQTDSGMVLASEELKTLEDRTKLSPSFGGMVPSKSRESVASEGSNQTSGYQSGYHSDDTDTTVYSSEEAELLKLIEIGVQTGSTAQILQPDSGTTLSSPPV
READOUT_TYPE: IC50 (nM)
One number for each entry, in nM.

Known IC50 results, listed for orientation:
Data request: I am curious: what IC50 value has been reported for `O=C(Nc1ccc(-c2ccc3c(NC(=O)c4ccsc4)n[nH]c3c2)cc1)Nc1cc(C(F)(F)F)ccc1F` ?
Data returned: 166

Data request: Consider the compound `O=CNc1n[nH]c2c(F)c(-c3ccc(NC(=O)Nc4cc(C(F)(F)F)ccc4F)cc3)ccc12` and give its measured IC50.
Data returned: 164

Data request: Can you look up the measured IC50 of `Cc1ccc(-n2nc(C(C)(C)C)cc2NC(=O)Nc2ccc(-c3ccc4c(N)n[nH]c4c3F)cc2)cc1` for me?
Data returned: 11

Further cases:
Data request: Query (compound): `O=C(Nc1n[nH]c2cc(-c3ccc(NS(=O)(=O)c4cccc(Cl)c4Cl)cc3)ccc12)c1ccsc1` ; field requested: IC50
Data returned: 864

Cited source for all entries: patent US7517902B2
